Test: self-splicing fitness, log relative to wild type (ln ratio); higher = more splicing; Tetrahymena group I intron in knt gene, E. coli kanamycin selection, DiMSum; sequences stand for … in CUCUCU…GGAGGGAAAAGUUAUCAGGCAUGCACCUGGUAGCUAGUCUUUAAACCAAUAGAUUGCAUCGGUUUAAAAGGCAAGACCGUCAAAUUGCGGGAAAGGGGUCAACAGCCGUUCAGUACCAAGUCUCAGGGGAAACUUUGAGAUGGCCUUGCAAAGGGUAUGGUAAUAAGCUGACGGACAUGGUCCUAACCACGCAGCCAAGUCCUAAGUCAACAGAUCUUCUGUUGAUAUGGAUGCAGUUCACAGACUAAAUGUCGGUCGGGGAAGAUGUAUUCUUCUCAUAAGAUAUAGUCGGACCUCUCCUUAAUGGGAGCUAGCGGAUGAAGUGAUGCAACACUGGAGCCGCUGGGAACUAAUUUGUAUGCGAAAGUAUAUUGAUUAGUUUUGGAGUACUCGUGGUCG;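 note: selection with 25 µg/mL kanamycin versus none on LB agar overnight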
Settings: 30 °C
Label N if self-splicing fitness (ln) falls below -3; label Y in every other case.

Query: Dear colleague, could you confirm whether CCUAAGCAAUAUUACGGUAU has self-splicing fitness (ln) at or above -3?
Reply: N

Query: Does self-splicing fitness (ln) meet or surpass -3 for ACUAAGCAAUAUUACGGGCC ?
Reply: Y

Query: Hi, just wondering whether AUGUAGCAAUAUUACGAAGG shows self-splicing fitness (ln) of -3 or higher.
Reply: N

Query: Threshold query (self-splicing fitness (ln) >= -3) on AACAAGCAAUAUUACGUUAA
Reply: Y

Query: Say whether CUCAAGCAAUAUUACGGUGU shows self-splicing fitness (ln) of -3 or more.
Reply: N

Query: Is reported self-splicing fitness (ln) greater than or equal to -3 here: CAAUAGCAAUAUUACGAACU
Reply: N

Query: Could you verify whether the entry GGAUAGCAAUAUUACGUGAA shows self-splicing fitness (ln) of no less than -3?
Reply: Y

Query: Is it the case that CAAAAGCAAUAUUACGUGAU has self-splicing fitness (ln) reaching or exceeding -3?
Reply: N

Query: Check if self-splicing fitness (ln) >= -3 (inclusive). Item: CCUCAGCAAUAUUACGUGCC
Reply: Y

Query: self-splicing fitness (ln) >= -3 for UUGAAGCAAUAUUACGUUUU ?
Reply: Y

Query: Determine whether measured self-splicing fitness (ln) meets or exceeds -3 for UUACAGCAAUAUUACGGUUA
Reply: Y

Query: Could you verify whether the entry AAAUAGCAAUAUUACGAUUA shows self-splicing fitness (ln) of no less than -3?
Reply: Y

Query: Has GCCCAGCAAUAUUACGUAUU a recorded self-splicing fitness (ln) greater than or equal to -3?
Reply: Y

Query: I'd appreciate it if you could say whether AUAGAGCAAUAUUACGUACG has self-splicing fitness (ln) at least equal to -3.
Reply: Y

Query: Record CUAAAGCAAUAUUACGUCCG ; criterion: self-splicing fitness (ln) no lower than -3. Met?
Reply: Y

Query: Hello, I need to know if CACAAGCAAUAUUACGUAUU has measured self-splicing fitness (ln) not below -3. Thanks!
Reply: N

---

Assay: self-splicing fitness, log relative to wild type (ln ratio); higher = more splicing; Tetrahymena group I intron in knt gene, E. coli kanamycin selection, DiMSum; sequences stand for … in CUCUCU…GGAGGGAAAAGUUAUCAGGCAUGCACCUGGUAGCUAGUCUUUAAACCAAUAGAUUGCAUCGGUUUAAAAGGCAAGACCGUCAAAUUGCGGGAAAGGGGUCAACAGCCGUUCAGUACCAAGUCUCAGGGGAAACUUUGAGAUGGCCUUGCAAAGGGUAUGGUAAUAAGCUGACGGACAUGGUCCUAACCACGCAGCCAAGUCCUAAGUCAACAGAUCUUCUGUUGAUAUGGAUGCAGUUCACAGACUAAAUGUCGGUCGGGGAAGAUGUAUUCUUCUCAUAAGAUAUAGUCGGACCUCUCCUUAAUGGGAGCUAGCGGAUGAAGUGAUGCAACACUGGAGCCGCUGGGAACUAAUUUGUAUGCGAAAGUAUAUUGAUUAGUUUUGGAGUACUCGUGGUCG
Conditions: 37 °C
measured.quantity: self-splicing fitness (ln)
No unit in the answer, only the number.

Value of self-splicing fitness (ln) reported for the sequence ACUGAGCAAUAUUACGUUGG is -2.17

self-splicing fitness (ln) reported for this sequence AGGCAGCAAUAUUACGGGAA : -2.42

Record GGGCAGCAAUAUUACGAGCU , field self-splicing fitness (ln): 0.481

self-splicing fitness (ln) in this record for CCCCAGCAAUAUUACGGGAU : -2.48

Just so you know, measured self-splicing fitness (ln) for GAGGAGCAAUAUUACGCGGG came out at -2.66

Item: UCUCAGCAAUAUUACGACGU | self-splicing fitness (ln): -0.541

Just so you know, measured self-splicing fitness (ln) for CGUUAGCAAUAUUACGCCUG came out at 0.664

Consider AUGUAGCAAUAUUACGAGCA . Its measured self-splicing fitness (ln) is -1.07

---

For each entry below, report its self-splicing fitness (ln) value.
Assay: self-splicing fitness, log relative to wild type (ln ratio); higher = more splicing; Tetrahymena group I intron in knt gene, E. coli kanamycin selection, DiMSum; sequences stand for … in CUCUCU…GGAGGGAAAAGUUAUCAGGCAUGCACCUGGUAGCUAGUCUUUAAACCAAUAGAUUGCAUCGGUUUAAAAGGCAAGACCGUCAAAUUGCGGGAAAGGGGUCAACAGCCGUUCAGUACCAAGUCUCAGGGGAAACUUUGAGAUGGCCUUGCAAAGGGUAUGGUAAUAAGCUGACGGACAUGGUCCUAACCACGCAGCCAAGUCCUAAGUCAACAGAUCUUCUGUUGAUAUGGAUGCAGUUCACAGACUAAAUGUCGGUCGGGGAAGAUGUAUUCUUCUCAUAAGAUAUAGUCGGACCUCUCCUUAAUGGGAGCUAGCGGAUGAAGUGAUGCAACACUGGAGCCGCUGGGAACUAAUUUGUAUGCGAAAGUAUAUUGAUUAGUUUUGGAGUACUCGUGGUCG
Settings: 37 °C
Response field accepts a number only; no unit should be typed.

get_value(item= CGAAAGCAAUAUUACGAUCU , readout=self-splicing fitness (ln)) returns 0.313

// sample UCUAAGCAAUAUUACGCAGC , its self-splicing fitness (ln) was -2.07

Briefly, self-splicing fitness (ln) measured for AGAAAGCAAUAUUACGGCGG : -0.586

Please fill in: self-splicing fitness (ln) reported for UGCCAGCAAUAUUACGACGU = -1.26

self-splicing fitness (ln) reading for UCGUAGCAAUAUUACGUGCA : -1.14

Value of self-splicing fitness (ln) reported for the sequence CAACAGCAAUAUUACGUGGG is -1.11

response.value for CGCAAGCAAUAUUACGACAG (field: self-splicing fitness (ln)) = 0.344

So for CCUUAGCAAUAUUACGGCAA , the logged self-splicing fitness (ln) turned out to be -2.54

Sample GUAAAGCAAUAUUACGCGCG ; self-splicing fitness (ln) observed: -0.615

Lookup result for UCAUAGCAAUAUUACGAGUU ; measured self-splicing fitness (ln): -1.56

Per the record, CGGAAGCAAUAUUACGUUUG has self-splicing fitness (ln) of -1.35

Kindly note the recorded self-splicing fitness (ln) for UCUAAGCAAUAUUACGUGGG , which is -1.92

Lab note: measured self-splicing fitness (ln) of AGUUAGCAAUAUUACGUGCU was -1.78

Data point: GCUUAGCAAUAUUACGCGGA ; self-splicing fitness (ln) = -0.345

Please fill in: self-splicing fitness (ln) reported for UAUCAGCAAUAUUACGUGGC = -2.41

The sequence identified as CGAGAGCAAUAUUACGCAGG registered its self-splicing fitness (ln) at -1.63

---

Assay: self-splicing fitness, log relative to wild type (ln ratio); higher = more splicing; Tetrahymena group I intron in knt gene, E. coli kanamycin selection, DiMSum; sequences stand for … in CUCUCU…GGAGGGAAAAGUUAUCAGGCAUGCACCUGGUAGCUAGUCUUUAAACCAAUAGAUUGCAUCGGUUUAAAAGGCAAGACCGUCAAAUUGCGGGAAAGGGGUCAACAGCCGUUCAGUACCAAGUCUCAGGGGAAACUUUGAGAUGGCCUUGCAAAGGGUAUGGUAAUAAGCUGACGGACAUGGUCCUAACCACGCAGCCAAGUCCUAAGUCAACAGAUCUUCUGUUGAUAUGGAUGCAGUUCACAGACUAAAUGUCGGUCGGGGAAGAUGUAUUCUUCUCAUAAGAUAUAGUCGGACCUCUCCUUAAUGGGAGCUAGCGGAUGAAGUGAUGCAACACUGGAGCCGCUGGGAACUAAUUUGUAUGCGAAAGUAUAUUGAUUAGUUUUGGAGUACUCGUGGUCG
Settings: 37 °C
# binarize self-splicing fitness (ln): threshold -1 inclusive, high side Met, low side Not met

Query: Say whether GCUUAGCAAUAUUACGGCUC shows self-splicing fitness (ln) of -1 or more.
Reply: Met

Query: // inclusive: self-splicing fitness (ln) at least -1? input: AUCAAGCAAUAUUACGGAAG
Reply: Not met

Query: Evaluate AGUAAGCAAUAUUACGCUGA : self-splicing fitness (ln) at minimum -1?
Reply: Not met

Query: Could you tell me if the measured self-splicing fitness (ln) of CCUUAGCAAUAUUACGGUUA reaches -1 or more?
Reply: Not met

Query: Does the reported self-splicing fitness (ln) for AAGAAGCAAUAUUACGUAAC fall at or above the -1 mark?
Reply: Not met

Query: Could you tell me if the measured self-splicing fitness (ln) of AGUCAGCAAUAUUACGCUCC reaches -1 or more?
Reply: Met

Query: Assess whether reported self-splicing fitness (ln) for UGCAAGCAAUAUUACGUGGA sits at -1 or higher.
Reply: Not met

Query: Decide: self-splicing fitness (ln) of CCCUAGCAAUAUUACGAAGA >= -1?
Reply: Not met

Query: Dear colleague, could you confirm whether UUCGAGCAAUAUUACGAUAG has self-splicing fitness (ln) at or above -1?
Reply: Not met

Query: Please tell me: is the sequence AUGCAGCAAUAUUACGUACA at or over -1 in terms of self-splicing fitness (ln)?
Reply: Met

Query: Exam item: decide whether the reported self-splicing fitness (ln) for CACGAGCAAUAUUACGCAGC is at least -1.
Reply: Not met

Query: # check: self-splicing fitness (ln) of CUUUAGCAAUAUUACGCCGG is greater than or equal to -1
Reply: Not met

Query: Determine whether this sequence has self-splicing fitness (ln) no lower than -1: UAUGAGCAAUAUUACGGGUG
Reply: Not met

Query: Entry UACGAGCAAUAUUACGUAGA : is its self-splicing fitness (ln) no less than -1?
Reply: Not met

Query: Could you verify whether the entry UCGUAGCAAUAUUACGUUUG shows self-splicing fitness (ln) of no less than -1?
Reply: Not met

Query: I'd appreciate it if you could say whether GGUGAGCAAUAUUACGGUCU has self-splicing fitness (ln) at least equal to -1.
Reply: Met
